Assay: chemical genetic growth profiling, strain panel (AID 1159580);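 note: tested at 20 µM; growth read once vehicle control cultures reached saturation at 30 °C; 1 = growth at the plate median or of vehicle wells; lower values mean less growth of the strain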
Conditions: S. cerevisiae deletion strains, growth OD, locus YER111C, strain swi4, stronger effect = lower value
The whole screen tested about 5,500 compounds, of which about 2,000 (36%) were called active. Another 18% or so got no clear call; they are omitted. Some of the results follow.
# yes (1) = normalized growth below 1 (exclusive); no (0) = normalized growth at/above 1

Compound | Class
O=C(O[C@@H]1Cc2c(O)cc(O)cc2O[C@@H]1c1cc(O)c(=O)c2c(O)c(O)cc([C@H]3Oc4cc(O)cc(O)c4C[C@H]3O)c2c1)c1cc(O)c(O)c(O)c1 | yes (1)
COc1cc(OC)c2c(=O)c(O)c(-c3ccc(OC)c(OC)c3)oc2c1 | yes (1)
O=C1C=C2C(=CCOC2O)O1 (stereo not drawn) | yes (1)
COC(=O)c1c(C)cc(O)cc1O | no (0)
CCCCOc1cc(C(=O)NCCN(CC)CC)c2ccccc2n1 | yes (1)

Consider the additional compound presented here.
Please indicate whether the reported normalized growth of CCOC(=O)c1c(C)cc(O)cc1O is strictly below 1.
yes (1)

* * *

Experiment: chemical genetic growth profiling, strain panel (AID 1159580);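 note: tested at 20 µM; growth read once vehicle control cultures reached saturation at 30 °C; 1 = growth at the plate median or of vehicle wells; lower values mean less growth of the strain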
Conditions: S. cerevisiae deletion strains, growth OD, locus YOL147C, strain pex11, stronger effect = lower value
Out of some 5,500 compounds screened, about 2,000 (36%) were called active. About 18% were inconclusive and are not listed. Some of the results follow.
Experimental Endpoint: normalized growth

Solved entries:
Compound | Experimental Endpoint | Measured
CC1(C)C2CC(=O)[C@]3(C)C(CC[C@@]4(C)[C@H](c5ccoc5)OC(=O)C5OC543)[C@@]2(C)[C@@H](O)C[C@H]1O (stereo not given in full) | normalized growth | 0.982 (inactive)
CC1(C)O[C@H]2CC(=O)OC[C@]23[C@H]2CC[C@@]4(C)[C@H](c5ccoc5)OC(=O)[C@H]5O[C@]54[C@]2(C)C(=O)C[C@@H]13 | normalized growth | 0.998 (inactive)
CC1(C)C=CC(=O)[C@@]2(C)C1CC(=O)[C@]1(C)C2CC[C@@]2(C)[C@H](c3ccoc3)OC(=O)C3OC321 (stereo not given in full) | normalized growth | 0.971 (inactive)
CC1(C)C2CC(=O)[C@]3(C)C(CC[C@@]4(C)[C@H](c5ccoc5)OC(=O)[C@H]5O[C@]543)[C@@]2(C)C(=O)C[C@H]1O (stereo not given in full) | normalized growth | 1.02 (inactive)

Here's the next entry for you.
Provide normalized growth value for the following compound: CC1(C)C(=O)C=C[C@@]2(C)C1CC(=O)[C@]1(C)C2CC[C@@]2(C)[C@H](c3ccoc3)OC(=O)[C@H]3O[C@]321 (stereo not given in full)
1.01 (inactive)

* * *

Assay: chemical genetic growth profiling, strain panel (AID 1159580);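 note: tested at 20 µM; growth read once vehicle control cultures reached saturation at 30 °C; 1 = growth at the plate median or of vehicle wells; lower values mean less growth of the strain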
Details: S. cerevisiae deletion strains, growth OD, locus YJL095W, strain BCK1 (second series)
Out of some 5,500 compounds screened, about 2,000 (36%) were called active. Inconclusive results (about 18%) are left out. Rule as the data show it: active = normalized growth mostly below about 0.91 (no sharp cut-off); inconclusive = no clear call, values can overlap the other calls; inactive = mostly above about 0.92. The list shows a part of the results.
Parameter call: string, one of 1.0 (active), 0.0 (inactive)

Previously resolved entries follow.
Compound | Class
O=c1c(O)c(-c2ccc(O)c(O)c2)oc2cc(O)cc(O)c12 | 1.0
COc1ccc(-c2oc3cc(O[C@H]4O[C@H](CO)[C@@H](O)[C@H](O)[C@H]4O)c(OC)c(O)c3c(=O)c2OC)cc1O | 0.0
CCCCC1C(=O)N(c2ccccc2)N(c2ccc(O)cc2)C1=O (stereo unspecified) | 0.0
C[C@@H]1O[C@@H](OC[C@H]2OC(Oc3c(-c4ccc(OCCO)c(OCCO)c4)oc4cc(OCCO)cc(O)c4c3=O)[C@H](O)[C@@H](O)[C@@H]2O)[C@H](O)[C@H](O)[C@H]1O (stereo partly specified) | 0.0
C[C@@H]([C@H](O)c1ccccc1)N(C)C | 0.0
CC(=O)O[C@@H]1CC2C(C)(C)C(=O)C=C[C@]2(C)C2CC[C@@]3(C)[C@H](c4ccoc4)OC(=O)[C@H]4O[C@]43[C@@]21C (stereo partly specified) | 0.0

Shifting focus to the compound that follows.
Short answer needed: outcome of this test for CC1(C)C2CC(=O)[C@]3(C)C(CC[C@@]4(C)[C@H](c5ccoc5)OC(=O)[C@H]5O[C@]543)[C@@]2(C)C(=O)C[C@H]1O (stereo partly specified) ?
0.0
